# PROTOCOL: Solubility in organic solvents (EtOH, MEK)
# Type: physicochemical
# CONDITION_CONTEXT: solvent EtOH
PARAMETER: Solubility (g/l) EtOH (g/L)
Return type: number; implicit unit g/L.

response.value for CC1=C(C#N)C(=O)N(CCCOC(C)C)C(=O)C1=CC=Cc1c(C)c(C#N)c(=O)n(C)c1[O-].CCCC[N+](CCCC)(CCCC)CCCC [reference compound] (field: Solubility (g/l) EtOH) = 21.3

response.value for CCCC[N+](CCCC)(CCCC)CCCC.CCN1C(=O)C(=CC=Cc2c(C)c(C#N)c(=O)n(CC)c2[O-])C(C)=C(C#N)C1=O [ethyl, ethyl, tetrabutyl-ammonium] (field: Solubility (g/l) EtOH) = 5.6

response.value for CCCC[N+](CCCC)(CCCC)CCCC.CCCCn1c([O-])c(C=CC=C2C(=O)N(CC)C(=O)C(C#N)=C2C)c(C)c(C#N)c1=O [ethyl, n-butyl, tetrabutyl-ammonium] (field: Solubility (g/l) EtOH) = 14.3
